Molecular target: HIV-1 Env of pseudovirus isolate MGRM-G-016 (subtype G) (HIV-1)
Assay: cell-based or functional assay
# key: entry, value: IC50

binder: PGT-128 (antibody, V domains shown) VH: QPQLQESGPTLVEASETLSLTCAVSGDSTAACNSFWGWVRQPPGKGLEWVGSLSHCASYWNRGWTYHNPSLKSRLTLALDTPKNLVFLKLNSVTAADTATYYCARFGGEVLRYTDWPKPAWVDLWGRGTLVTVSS VL: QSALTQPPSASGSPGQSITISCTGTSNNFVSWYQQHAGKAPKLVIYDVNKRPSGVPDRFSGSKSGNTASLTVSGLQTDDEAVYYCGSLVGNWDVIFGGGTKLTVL
IC50: > 50 µg/mL
//
binder: PGT-136 (antibody, V domains shown) VH: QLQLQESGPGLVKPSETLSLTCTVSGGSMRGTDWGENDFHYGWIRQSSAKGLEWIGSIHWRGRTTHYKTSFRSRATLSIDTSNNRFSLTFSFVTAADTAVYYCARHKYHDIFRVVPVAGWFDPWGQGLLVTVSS VL: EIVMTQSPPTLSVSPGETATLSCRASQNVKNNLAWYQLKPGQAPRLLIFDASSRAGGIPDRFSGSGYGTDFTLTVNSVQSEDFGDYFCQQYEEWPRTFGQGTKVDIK
IC50: > 50 µg/mL
//
binder: PGT-127 (antibody, V domains shown) VH: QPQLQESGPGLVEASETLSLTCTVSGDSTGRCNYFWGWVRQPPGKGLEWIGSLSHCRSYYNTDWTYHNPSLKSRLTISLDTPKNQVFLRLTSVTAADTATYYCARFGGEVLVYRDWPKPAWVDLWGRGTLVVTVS VL: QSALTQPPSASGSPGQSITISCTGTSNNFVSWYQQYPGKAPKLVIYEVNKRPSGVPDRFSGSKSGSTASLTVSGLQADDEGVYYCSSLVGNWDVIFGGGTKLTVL
IC50: > 50 µg/mL
